System: CDK4-cyclinD1
Setup Conditions: concentration: 1 μM, replicates: in singlicate; n = 1;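 also: KINOMEscan kinase panel screen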
Readout: %Inh (%)
I only need the number, in %, no unit after it.

[
  {
    "Compound": "NCC(NC(=O)c1cc(-c2cn[nH]c2)c(-c2ccnc3[nH]ccc23)s1)c1ccccc1.O=C(O)C(F)(F)F.O=C(O)C(F)(F)F (centres unmarked)",
    "Tgt": "CDK4-cyclinD1",
    "Observed Measurement": 48
  }
]

Let us move to another entry and its %Inh.
Lookup: For the compound shown here, CCc1ccnc(/C=C/c2n[nH]c3cc(Sc4ccccc4C(=O)NC)ccc23)c1 , give the reported %Inh.
Found: 16

====

// %Inh lookup, one value per entry
System: RSK3(Kin.Dom.1-N-terminal)
Construct: gene RPS6KA2
Setup Conditions: concentration: 1 μM, replicates: in singlicate; n = 1
I only need the number, in %, no unit after it.

Worked examples follow.
[
  {
    "Compound": "Nc1nc(-c2ccc3c(N)n[nH]c3c2)cc(N2CCCC2)n1",
    "Readout": "%Inh",
    "Observed Measurement": 20
  },
  {
    "Compound": "CN(C(=O)c1ccc(-c2cc(-c3c[nH]nc3-c3ccccn3)ccn2)cc1)C1CCOCC1",
    "Readout": "%Inh",
    "Observed Measurement": 0
  },
  {
    "Compound": "CNc1ncnc2[nH]ncc12",
    "Readout": "%Inh",
    "Observed Measurement": 5
  },
  {
    "Compound": "Cc1nnc(-c2ccc3occ(-c4ccc(C(C)O)cc4)c3c2)o1 (centres unmarked)",
    "Readout": "%Inh",
    "Observed Measurement": 0
  }
]

Lookup: For the compound shown here, CN(C1=C(c2ccccc2)C(=O)NC1=O)c1ccccc1 , give the reported %Inh.
Found: 14

====

Test system: PIK3CG
Setup Conditions: concentration: 1 μM, replicates: in singlicate; n = 1
// %Inh lookup, one value per entry
I only need the number, in %, no unit after it.

Worked examples follow.
[
  {
    "Compound": "COCCNC(=O)c1ccc(-c2cc(C(=O)NC3CC3)cc(F)c2C)cc1 [GW868318]",
    "Measure Unit": "%",
    "Observed Measurement": 29
  },
  {
    "Compound": "COc1ccc(S(=O)(=O)NC2CCN(c3cc(C)nc(Nc4cccc(C#N)c4)n3)CC2)cc1.O=C(O)C(F)(F)F [GSK1653539]",
    "Measure Unit": "%",
    "Observed Measurement": 33
  },
  {
    "Compound": "CCc1nc(-c2cccc(C)c2)c(-c2ccnc(NCc3ccccc3)c2)s1",
    "Measure Unit": "%",
    "Observed Measurement": 0
  },
  {
    "Compound": "CN(C(=O)c1ccc(-c2cc(-c3c[nH]nc3-c3ccccn3)ccn2)cc1)C1CCOCC1 [GW810083]",
    "Measure Unit": "%",
    "Observed Measurement": 32
  },
  {
    "Compound": "CC(C)(CN)c1nc(-c2ccc(Cl)c(O)c2)c(-c2ccncc2)[nH]1.O=C(O)C(F)(F)F [SB-477794]",
    "Measure Unit": "%",
    "Observed Measurement": 0
  },
  {
    "Compound": "Cc1nnc(-c2ccc3ncc(-c4ccc(S(C)=O)cc4)n3c2)o1 (stereo not drawn)",
    "Measure Unit": "%",
    "Observed Measurement": 3
  },
  {
    "Compound": "O=C(NCCCN1CCOCC1)c1cccc(Nc2nccc(Nc3ccc(Oc4ccccc4)cc3)n2)c1 [GW663929]",
    "Measure Unit": "%",
    "Observed Measurement": 11
  },
  {
    "Compound": "Cl.Nc1ncnc2occ(-c3ccc(NC(=O)Nc4cc(C(F)(F)F)ccc4F)cc3)c12 [SB-707548]",
    "Measure Unit": "%",
    "Observed Measurement": 6
  },
  {
    "Compound": "COc1ccc(Nc2ncc(C#N)c(Nc3ccccc3C(N)=O)n2)cc1N1CCN(C)CC1.Cl [GSK1558669]",
    "Measure Unit": "%",
    "Observed Measurement": 0
  },
  {
    "Compound": "COC(=O)Nc1nc2cc(Oc3ccc(NC(=O)Nc4cc(F)ccc4F)cc3)ccc2[nH]1.Cl [GW701424]",
    "Measure Unit": "%",
    "Observed Measurement": 0
  }
]

Lookup: For the compound shown here, CN1c2ccc(NCc3ccc(F)cc3)cc2-c2c(cnn2C)S1(=O)=O , give the reported %Inh.
Found: 0

Lookup: For the compound shown here, COc1ccc(Nc2nccc(N3CCC(NC(=O)Nc4cccc(C(C)=O)c4)C3)n2)cc1 (stereo not drawn) [GSK1379731] , give the reported %Inh.
Found: 0

Lookup: For the compound shown here, COc1cc2ncn(-c3cc(OCc4sccc4Cl)c(C(N)=O)s3)c2cc1OC [GSK448459] , give the reported %Inh.
Found: 35

Lookup: For the compound shown here, CN1c2ccc(CNc3ccc(F)cc3)cc2-c2c(cnn2C)S1(=O)=O , give the reported %Inh.
Found: 0

Lookup: For the compound shown here, O=C(NOCC1CC1)c1ccc(F)c(F)c1Nc1ccc(I)cc1Cl , give the reported %Inh.
Found: 0

Lookup: For the compound shown here, CC(C)Oc1ccc2c(-c3ccnc(Nc4ccc(N5CCN(C)CC5)cc4)n3)cnn2n1 [GW696155] , give the reported %Inh.
Found: 30

Lookup: For the compound shown here, CC(=O)Nc1ccc(COc2ccc(Nc3ccnc4cc(-c5ccccn5)ccc34)cc2)cc1.Cl [GW440148] , give the reported %Inh.
Found: 14

Lookup: For the compound shown here, Cc1cccc(Cn2ccn3c(=O)cc(N4CCOCC4)nc23)c1 [GSK2297542] , give the reported %Inh.
Found: 10
